Test target: T1, Human ACVR2A (human, UniProt P27037 20-135, limits assumed); further: test concentration or dose not given here
T1 construct: also called activin receptor, type II A
T1 sequence (P27037 20-135 limits assumed): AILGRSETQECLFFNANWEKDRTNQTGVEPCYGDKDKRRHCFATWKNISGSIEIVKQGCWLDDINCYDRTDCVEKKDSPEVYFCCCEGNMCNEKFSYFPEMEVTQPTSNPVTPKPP
Method description: ELISA
Recorded endpoint: optical density (OD)
Form entry: value (OD) — number only.

Please review the following examples before continuing.
| Binder | Endpoint value |
| --- | --- |
| 371_H11 (antibody, V domains shown, VH/VL only) VH: EVQLLESGGGLVQPGGSLRLSCAASGFTFSSYSMNWVRQAPGKGLEWVSGINYNGGYKGYADSVKGRFTISRDNSKNTLYLQMNSLRAEDTAVYYCARGATWHDTHLDYWGQGTLVTVSS VL: DIQMTQSPSSLSASVGDRVTITCRASQSILTYLNWYQQKPGKAPKLLIYATTSRHSGVPSRFSGSGSGTDFTLTISSLQPEDFATYYCQQSYESPLTFGGGTKVEIK | 2.89 |
| 367_B08 (antibody, V domains shown, VH/VL only) VH: EVQLLESGGGLVQPGGSLRLSCAASGFTFSDYGMNWVRQAPGKGLEWVSGINYNGGYKGYADSVKGRFTISRDNSKNTLYLQMNSLRAEDTAVYYCARSANWHDTALDYWGQGTLVTVSS VL: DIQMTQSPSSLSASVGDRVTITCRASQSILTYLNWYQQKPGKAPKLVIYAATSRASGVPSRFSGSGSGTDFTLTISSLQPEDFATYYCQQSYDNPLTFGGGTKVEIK | 2.13 |

Field: next binder
For 365_C01 (antibody, V domains shown, VH/VL only) VH: EVQLLESGGGLVQPGGSLRLSCAASGFTFDSYGMNWVRQAPGKGLEWVSSINYNSGYKSYADSVKGRFTISRDNSKNTLYLQMNSLRAEDTAVYYCARSANWHDTHLDYWGQGTLVTVSS VL: DIQMTQSPSSLSASVGDRVTITCRASQSIVSYLNWYQQKPGKAPKLVIYAVTSRASGVPSRFSGSGSGTDFTLTISSLQPEDFATYYCQQSYESPLTFGGGTKVEIK the binder record lists optical density as 2.87

The reported numbers originate from patent US20210380703A1.
